- METHOD: Solubility of agrochemical actives in the solvents: visual observation at 0° C. with nucleation
- Format: physicochemical
- Parameters: key: Crystal: When the formation of active crystals is observed, the term of <> is indicated; Limpid: When the solution remains limpid (absence of solid or cloudiness), it is the term of <> which is indicated
- STATED_CONDITIONS: Active Difenconazole 25% EC in the compound as solvent; crystal of active added, further 7 days at 0° C.
OBSERVABLE: Aspect at 0° C. with nucleation

- CCCCCCCCCCOC(=O)C(=O)N(C)C [Compound 4, n-decyl 2-(dimethylamino)-2-oxoacetate]: Limpid
- CCCCC(CC)COC(=O)C(=O)N(C)C (stereo not shown): Limpid
- COC(=O)C(=O)N(C)C [Compound 1, methyl 2-(dimethylamino)-2-oxoacetate]: Limpid
- CCOC(=O)C(=O)N(C)C [Compound 2, ethyl 2-(dimethylamino)-2-oxoacetate]: Limpid

* * *

- METHOD: Solubility of agrochemical actives in the solvents: visual observation at 0° C. after 7 days (CIPAC MT39 test)
- Assay type: physicochemical
- Parameters: key: Crystal: When the formation of active crystals is observed, the term of <> is indicated; Limpid: When the solution remains limpid (absence of solid or cloudiness), it is the term of <> which is indicated
- STATED_CONDITIONS: Active Alachlor 48% EC in the compound as solvent; 7 days at 0° C.
OBSERVABLE: Aspect at 0° C.

• COC(=O)C(=O)N(C)C [Compound 1, methyl 2-(dimethylamino)-2-oxoacetate] = Limpid
• CCCCC(CC)COC(=O)C(=O)N(C)C (stereo not shown) = Limpid
• CCOC(=O)C(=O)N(C)C [Compound 2, ethyl 2-(dimethylamino)-2-oxoacetate] = Limpid
• CCCCCCCCCCOC(=O)C(=O)N(C)C [Compound 4, n-decyl 2-(dimethylamino)-2-oxoacetate] = Limpid

* * *

- METHOD: Solubility of agrochemical actives in the solvents: visual observation at 0° C. after 7 days (CIPAC MT39 test)
- Format: physicochemical
- Set-up: key: Crystal: When the formation of active crystals is observed, the term of <> is indicated; Limpid: When the solution remains limpid (absence of solid or cloudiness), it is the term of <> which is indicated
- STATED_CONDITIONS: Active Trifluralin 40% EC in the compound as solvent; 7 days at 0° C.
OBSERVABLE: Aspect at 0° C.

- CCOC(=O)C(=O)N(C)C [Compound 2, ethyl 2-(dimethylamino)-2-oxoacetate]: Limpid
- CCCCCCCCCCOC(=O)C(=O)N(C)C [Compound 4, n-decyl 2-(dimethylamino)-2-oxoacetate]: Crystal
- COC(=O)C(=O)N(C)C [Compound 1, methyl 2-(dimethylamino)-2-oxoacetate]: Crystal
- CCCCC(CC)COC(=O)C(=O)N(C)C (stereo not shown) [Compound 3]: Limpid
